// provenance: PubChem BioAssay (NCI)

# System: NCI-H226 lung
# PROTOCOL_TEXT: NCI-60 one-dose screen, 48 h (100 = growth as untreated, 0 = no growth, -100 = all killed)
# ASSAY_SETUP: 10 µM
About 83,000 compounds went through this panel and 20% of them were active in at least one assay; those are over-represented in the sample as a whole.
Task for the reader: assign each of the following compounds its reported growth.
One number for each entry, in %.

Known results for compounds:
>  <COMPOUND>
NNc1c2ccccc2nc2ccccc12

>  <growth / %>
48.5

$$$$
>  <COMPOUND>
CC(C)(C)CC(C)(C)c1ccc(OCCO)cc1

>  <growth / %>
105

$$$$
>  <COMPOUND>
OC(CN1CCCC2CCCCC21)c1cc2ccccc2c2ccccc12 (centres undefined)

>  <growth / %>
39.3

$$$$

Kindly give each listed record's growth.
1. Clc1ccc(/C=C/c2ccccn2)c(Cl)c1
2. CO[C@H](C(=O)[C@@H](O)[C@@H](C)O)[C@@H]1Cc2cc3cc(OC4CC(OC5CC(O)C(O)C(C)O5)C(O)C(C)O4)c(C)c(O)c3c(O)c2C(=O)[C@H]1OC1CC(OC2CC(OC3CC(C)(O)C(O)C(C)O3)C(O)C(C)O2)C(O)C(C)O1 (some centres undefined)
3. Cc1cc(O)c(C(C)C)cc1Cl
4. COC(=O)C1C(O)C(C)C(O)C(C)C=C(C)C2=C3C(=C(C)C(=O)c4c(O)c(c(C)c(OC(C)=O)c43)NC(=O)C(C)=C/C=C\C(C)C(O)C(C)C1O)OCO2 (centres undefined)
5. CCCCCCCCCCCCCCCCCCOCC(COP(=O)([O-])OCC[N+](C)(C)C)OC (centres undefined)
6. O=C(/C=C/c1cccnc1)c1ccccc1

**A:**
1. 97.1
2. 10.8
3. 96.7
4. 104
5. 93.9
6. 96.6

====

# Test system: HS 578T breast
# PROTOCOL_TEXT: NCI-60 one-dose screen, 48 h
# ASSAY_SETUP: 10 µM
# Description: Growth inhibition of the HS 578T human tumor cell line is measured as a screen for anti-cancer activity. Cells are grown in 96 well plates and exposed to the test compound for 48 hours. Compounds are tested at a single concentration, which is 10^-5 M for most compounds. The reported endpoint is percent growth (GI% or GIPRCNT), where numbers from 0 - 100% represent growth inhibition, and numbers from -100% - 0 represent cell death. For example, a value of 40 represents 60% growth inhibition. […]
Compounds without any hit were thinned out: in the full panel of roughly 83,000, 20% have a hit. Activity calls are given as the source filed them. How the source made its calls: active means growth percent below 10; inactive means the rest.
Allowed answers: active, inactive

>  <COMPOUND>
COc1ccc(CC(=O)c2ccc(O)cc2O)cc1

>  <TARGET_OR_TEST_SYSTEM>
HS 578T breast

>  <CLASS_NAME>
inactive

$$$$
>  <COMPOUND>
CCCCCC(C)c1ccc(O)c(C)c1 (stereo not drawn)

>  <TARGET_OR_TEST_SYSTEM>
HS 578T breast

>  <CLASS_NAME>
inactive

$$$$
>  <COMPOUND>
Clc1cc(Cl)c(Cl)nn1

>  <TARGET_OR_TEST_SYSTEM>
HS 578T breast

>  <CLASS_NAME>
inactive

$$$$

**Q:** Name the outcome recorded for OC(CN1CCCC2CCCCC21)c1cc2ccccc2c2ccccc12 (stereo not drawn) in the assay.
**A:** inactive

**Q:** // outcome(item) with item = O=c1ccn(C2CC(O)C(COC(c3ccccc3)(c3ccccc3)c3ccccc3)O2)c(=O)[nH]1 (stereo not drawn)
**A:** inactive

**Q:** Look up the recorded call for CCC(C)(C)c1cc(O)c(C(C)(C)CC)cc1O in this test.
**A:** inactive

**Q:** Hello, I am checking results. What call was entered for CCO/C=C1\SC(=S)N(c2cccc(O)c2)C1=O ?
**A:** inactive

**Q:** Field: outcome | Entry: N=S(c1ccccc1[N+](=O)[O-])c1ccccc1[N+](=O)[O-]
**A:** inactive

**Q:** Please share the test call associated with COc1cccc2c1C(=O)c1c(O)c3c(c(O)c1C2=O)C[C@@](O)(C(C)=O)C[C@@H]3OC1CC(N)C(O)C(C)O1 (stereo partly drawn) .
**A:** active

**Q:** Hello, I am checking results. What call was entered for O=C(O)COc1ccc(OCC(=O)O)cc1 ?
**A:** inactive

**Q:** Dear colleague, could you share the recorded outcome for NC1=C(Cl)C(=O)c2ccccc2C1=O when you have a moment?
**A:** inactive

**Q:** Short answer needed: outcome of this test for O=[N+]([O-])C1=C(c2ccccc2)SC=C(c2ccccc2)S1 ?
**A:** inactive

**Q:** Which outcome did this test record for the compound CC1=CC(C)=Nc2ccc(Cl)cc2N1 ?
**A:** inactive
